# measured.target: Coenzyme A biosynthesis bifunctional protein CoaBC (Mycobacterium tuberculosis (strain ATCC 25618 / H37Rv)) (UniProt P9WNZ1)
# Sequence (whole entry): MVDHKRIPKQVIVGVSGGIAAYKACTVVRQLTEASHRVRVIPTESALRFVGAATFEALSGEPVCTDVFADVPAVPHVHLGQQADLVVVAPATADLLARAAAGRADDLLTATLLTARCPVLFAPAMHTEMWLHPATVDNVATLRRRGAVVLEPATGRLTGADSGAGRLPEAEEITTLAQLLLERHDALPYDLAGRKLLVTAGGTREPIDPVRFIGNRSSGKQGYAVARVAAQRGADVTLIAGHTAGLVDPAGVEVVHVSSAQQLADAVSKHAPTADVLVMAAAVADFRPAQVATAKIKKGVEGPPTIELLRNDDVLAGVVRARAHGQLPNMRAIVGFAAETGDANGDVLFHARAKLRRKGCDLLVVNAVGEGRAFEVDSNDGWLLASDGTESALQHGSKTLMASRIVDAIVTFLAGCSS
# assay.procedure: Biomol Green assay for MtCoaBC inhibitor, OD650 read
# Format: functional
# Parameters: scale not given: in the data most compounds retested in dose-response had high values
# stated.conditions: 30 µM
The campaign covered roughly 67,000 compounds. About 40 (0.06%) showed an effect of 50% or more. Only a selection was taken, and strong results are over-represented in it overall.
quantity.name: Percent Effect (%)
Answer in %, number only, no unit symbol.

Ask | Which Percent Effect value belongs to Cc1ccc(CN2CC[C@H]3OCC[C@@H](C(=O)NC4CC4)[C@@H]3C2)o1 ?
Reply | 3.34

Ask | Would you mind telling me what Percent Effect value was observed for O=C(NC1CCN(C2CC2)C1)c1cn(-c2ccc(F)cc2)nn1 (stereo not drawn) ?
Reply | -3.95

Ask | I have this molecule here, c1csc(CN2CCO[C@H]3[C@H](OCCN4CCCC4)CC[C@@H]32)n1 , and I need its recorded Percent Effect.
Reply | 5.46

Ask | Returns the measured Percent Effect for the input molecule. Input: Cc1nnc(N2C[C@H](Oc3ccccn3)[C@H]3OCCC[C@H]32)s1
Reply | 4.91

Ask | What measured Percent Effect goes with Cc1cc(N2CCC(O)CC2)nc(C)n1 ?
Reply | 11.1

Ask | Give its Percent Effect value. Item: COCCN1CCC2(CC1)CN(CCn1cccn1)C(=O)CO2
Reply | -1.25

Ask | # get_value(readout='Percent Effect', item= CN(C)CCO[C@@H]1CC[C@H]2[C@H]1OCCN2C(=O)c1ccccc1F )
Reply | 3.95

Ask | Could you tell me which Percent Effect is on file for CN1C(Cn2cccn2)C[C@@H]2CN(Cc3ccccn3)CC[C@@H]21 (stereo partly drawn) ?
Reply | -8.3

Ask | Sample O=C(N1CCCO1)[C@@]12CCO[C@@H]1CCN(Cc1ccsc1)C2 — what was its Percent Effect?
Reply | -8.02

Ask | What Percent Effect value was documented for this molecule, Cn1cc(CN2CC[C@@H]3[C@@H]2CCN3C(=O)c2cccc(F)c2)cn1 ?
Reply | 5.07

Ask | Entry Cc1ccc(-n2c(COCC(=O)O)nc3c(C)cccc32)nc1 has what Percent Effect?
Reply | 5.78

Ask | Percent Effect for CN1CCCCC1c1cncc(N2CCC(O)CC2)n1 (stereo not drawn) ?
Reply | -0.526

Ask | Name the reported Percent Effect value associated with the molecule Cc1ccc(NC2(C(=O)N3CCn4cncc4C3)CCCCC2)cc1C
Reply | 4.82

Ask | Report Percent Effect for Cc1cccc2c1nc(COCC(=O)O)n2-c1ccsc1 please.
Reply | 5.35

Ask | Look up Percent Effect for this molecule: O=C(NC1CC1)[C@@H]1CCO[C@@H]2CCN(Cc3ccsc3)C[C@H]21
Reply | 8.23

Ask | Please look up its Percent Effect: CN(C)c1ncc2c(n1)CN(C1CC(C)(C)NC(C)(C)C1)C2=O
Reply | 0.231

Ask | For the molecule O=C(NC1CCN(C2CC2)CC1)c1cn(-c2ccc(Cl)cc2)nn1 , what Percent Effect is on record?
Reply | 3.19

Ask | Which Percent Effect value belongs to Cc1nc(-c2ccc(CC(=O)N3CCNC(=O)C3)cc2)cs1 ?
Reply | -8.27

Ask | Quick check: Percent Effect of COC1CCN(CCNC(=O)NC(C)c2cccc(Cl)c2)CC1 (stereo not drawn) ?
Reply | -0.455

Ask | What value of Percent Effect has been recorded for this entry: O=C(O)COc1ccc(CN2CCCC(Cc3cccnc3)C2)cc1 (stereo not drawn)
Reply | 0.485

Ask | # query: Percent Effect of entry Cn1cc(C(=O)N2CC[C@@]3(O)CCN(C4CCCCC4)C[C@H]3C2)cn1
Reply | 0.467

Ask | Data request, read-out Percent Effect, for COc1cccc(CN2C[C@H]3CC[C@H]2C3)c1OCCN1CCOCC1
Reply | 4.29

Ask | Recorded Percent Effect of O=C1COC2(CCN(Cc3ccoc3)CC2)CN1CCn1cccn1 , please.
Reply | -3.75
